# subject_of_test: BACE1 in primary mouse cortical neurons (mouse, UniProt P56818 46-501)
# Sequence (P56818 46-501): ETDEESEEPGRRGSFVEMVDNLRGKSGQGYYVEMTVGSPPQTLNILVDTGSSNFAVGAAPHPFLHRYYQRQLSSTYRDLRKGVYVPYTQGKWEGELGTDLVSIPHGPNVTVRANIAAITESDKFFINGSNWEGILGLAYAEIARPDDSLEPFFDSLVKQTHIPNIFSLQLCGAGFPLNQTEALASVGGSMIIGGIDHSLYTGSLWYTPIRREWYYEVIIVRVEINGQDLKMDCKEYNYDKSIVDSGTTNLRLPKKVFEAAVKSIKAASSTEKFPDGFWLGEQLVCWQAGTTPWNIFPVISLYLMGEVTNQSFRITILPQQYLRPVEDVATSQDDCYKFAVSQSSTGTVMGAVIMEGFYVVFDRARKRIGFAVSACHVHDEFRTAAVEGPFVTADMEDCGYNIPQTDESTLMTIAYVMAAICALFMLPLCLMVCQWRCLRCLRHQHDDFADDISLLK
# measurement_protocol: cell-based or functional assay
reported_property: maximal % inhibition of Abeta x-40 (%)
Numbers only here, please. The scale is %.

binder	units_of_measure	maximal % inhibition of Abeta x-40
6296 (antibody, V domains shown, anti-BACE1 IgG) VH: QLQLQESGPGLVKPSETLSLTCTVSGGSISSSSYYWGWIRQPPGKGLEWIGNIYYSGSTYYNPSLRGRVTISVDTSKNQFSLKLSSVTAADTAVYYCARLGHGYNYFDLWGRGTLVTVSS VL: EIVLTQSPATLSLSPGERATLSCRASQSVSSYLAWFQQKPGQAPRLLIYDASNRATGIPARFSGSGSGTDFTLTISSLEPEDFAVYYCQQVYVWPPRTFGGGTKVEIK	%	62

Sample 6298 (antibody, V domains shown, anti-BACE1 IgG) VH: QLQLQESGPGLVKPSETLSLTCTVSGGSISWSSYYWSWIRQPPGKGLEWIGNIYYSGSTYYNPSLKSRVTISVDTSKNQFSLKLSSVTAADTAVYYCARLGHGYNYFDLWGRGTLVTVSS VL: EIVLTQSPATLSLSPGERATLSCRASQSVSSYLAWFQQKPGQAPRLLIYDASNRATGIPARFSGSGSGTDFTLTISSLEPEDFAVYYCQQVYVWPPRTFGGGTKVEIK ; maximal % inhibition of Abeta x-40 observed: 67

Form field maximal % inhibition of Abeta x-40, entry 6294 (antibody, V domains shown, anti-BACE1 IgG) VH: QLQLQESGPGLVKPSETLSLTCTVSGGSISSSSHYWGWIRQPPGKGLEWIGMIYYSGSTWYNPSLKSRVTISVDTSKNQFSLKLSSVTAADTAVYYCARVGHGVSYFDLWGRGTLVTVSS VL: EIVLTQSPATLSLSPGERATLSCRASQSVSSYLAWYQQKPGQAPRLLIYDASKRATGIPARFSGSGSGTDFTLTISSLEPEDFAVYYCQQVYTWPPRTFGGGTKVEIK : 59

maximal % inhibition of Abeta x-40 measured on 6293 (antibody, V domains shown, anti-BACE1 IgG) VH: QLQLQESGPGLVKPSETLSLTCTVSGGSISSSSYYWGWIRQPPGKGLEWIGMIYYSGSTWYNPSLRSRVTISVDTSKNQFSLKLSSVTAADTAVYYCARVGHGVSYFDLWGRGTLVTVSS VL: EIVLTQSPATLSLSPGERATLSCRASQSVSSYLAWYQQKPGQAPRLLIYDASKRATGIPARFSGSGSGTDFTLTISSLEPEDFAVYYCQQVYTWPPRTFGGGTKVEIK = 75
